# test.system: Metabotropic glutamate receptor 5 (Rattus norvegicus, UniProt P31424)
# Sequence (P31424 whole entry): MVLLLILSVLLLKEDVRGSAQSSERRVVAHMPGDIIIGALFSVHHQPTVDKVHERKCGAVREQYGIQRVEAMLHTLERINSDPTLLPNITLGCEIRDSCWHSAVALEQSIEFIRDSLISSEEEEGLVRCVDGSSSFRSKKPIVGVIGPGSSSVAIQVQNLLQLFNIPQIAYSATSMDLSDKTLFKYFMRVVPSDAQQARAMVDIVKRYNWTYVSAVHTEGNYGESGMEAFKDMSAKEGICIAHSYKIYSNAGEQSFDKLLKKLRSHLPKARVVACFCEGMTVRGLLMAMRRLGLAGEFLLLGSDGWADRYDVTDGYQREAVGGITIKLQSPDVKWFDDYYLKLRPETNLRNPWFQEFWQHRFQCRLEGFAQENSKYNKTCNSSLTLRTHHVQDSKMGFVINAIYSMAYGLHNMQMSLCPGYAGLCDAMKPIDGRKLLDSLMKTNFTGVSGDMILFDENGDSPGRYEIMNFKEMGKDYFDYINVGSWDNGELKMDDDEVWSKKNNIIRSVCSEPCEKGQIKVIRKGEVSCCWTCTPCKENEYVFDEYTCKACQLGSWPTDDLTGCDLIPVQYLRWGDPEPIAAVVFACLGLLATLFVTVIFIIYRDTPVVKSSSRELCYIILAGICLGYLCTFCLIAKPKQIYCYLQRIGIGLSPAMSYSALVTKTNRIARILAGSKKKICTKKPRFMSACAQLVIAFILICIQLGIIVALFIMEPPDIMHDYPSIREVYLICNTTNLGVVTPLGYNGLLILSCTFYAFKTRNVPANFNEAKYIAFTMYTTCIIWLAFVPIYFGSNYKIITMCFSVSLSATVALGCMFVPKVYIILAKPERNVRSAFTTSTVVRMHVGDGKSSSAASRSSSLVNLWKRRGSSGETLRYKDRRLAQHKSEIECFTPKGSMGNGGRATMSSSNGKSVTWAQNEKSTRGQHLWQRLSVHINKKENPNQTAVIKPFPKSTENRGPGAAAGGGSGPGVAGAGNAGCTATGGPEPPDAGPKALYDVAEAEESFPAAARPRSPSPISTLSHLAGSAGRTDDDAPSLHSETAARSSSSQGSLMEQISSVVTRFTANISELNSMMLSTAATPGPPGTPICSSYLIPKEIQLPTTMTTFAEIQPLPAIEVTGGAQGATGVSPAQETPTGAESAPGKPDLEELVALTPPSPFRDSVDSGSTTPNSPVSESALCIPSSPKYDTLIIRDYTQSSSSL
# measurement.description: Modulation of rat mGlu5 receptor assessed as calcium mobilization by cell based fluorescence assay
measured.metric: pEC50
Here pEC50 is given on a logarithmic scale as minus log10 of the concentration in mol/L.

Input line: What pEC50 value was documented for this compound, COc1cccc(OCc2cc3n(n2)[C@H](C)CN(c2ccc(F)cc2)C3=O)c1 ?
Output line: 5.74

Input line: Please give the result for C[C@@H]1CN(c2ccccc2F)C(=O)c2cc(COc3ccc(Cl)cn3)nn21 too.
Output line: 5.49

Input line: Please give the result for C[C@@H]1CN(c2c(F)cccc2F)C(=O)c2cc(COc3ccc(F)cn3)nn21 too.
Output line: 5.91
